target: Beta-2 adrenergic receptor (Homo sapiens); experiment: beta2AR agonists driving receptor internalization, primary screen, cell-based, FAP fluorogen, flow cytometry (AID 504454); settings: Am2.2-beta2AR cells, hits give high values, concentration not given here
Hit rate of the full screen: of about 340,000 compounds, about 1,400 (0.41%) were called active. The full list was thinned out, with actives kept by preference.
Hi, to clarify the labels: label 1 covers response from 10% upward, label 0 covers anything below 10%.

[
  {
    "compound": "COc1ccc(C(=O)CC2C(=O)N(C)C(=O)N(C)C2=O)cc1",
    "class_name": "label 0"
  },
  {
    "compound": "Cc1ccc(N2C(=O)NC(=O)C(CCc3ccncc3)(Cc3cccc(Cl)c3Cl)C2=O)cc1 (stereo not drawn)",
    "class_name": "label 0"
  },
  {
    "compound": "O=C1NC(=O)N(CCc2ccc(F)cc2)C(=O)/C1=C/C=C/c1ccccc1",
    "class_name": "label 1"
  },
  {
    "compound": "O=C1NC(=O)C(CCc2ccccn2)(Cc2cccc(Cl)c2Cl)C(=O)N1c1ccc(Br)cc1 (stereo not drawn)",
    "class_name": "label 1"
  },
  {
    "compound": "NC(=O)Nc1cccc(C(F)(F)F)c1",
    "class_name": "label 0"
  },
  {
    "compound": "CCC(=O)c1ccc(OCC(=O)N2CCN(CC(=O)Nc3ccc(C)cc3)CC2)cc1",
    "class_name": "label 1"
  },
  {
    "compound": "Cc1c(Oc2cc(NN3CCCCC3)c([N+](=O)[O-])cc2[N+](=O)[O-])cccc1[N+](=O)[O-]",
    "class_name": "label 0"
  },
  {
    "compound": "Cc1ccc(C(C)C)c(OCC(=O)N2CCN(CC(=O)N3CCOCC3)CC2)c1",
    "class_name": "label 0"
  },
  {
    "compound": "O=C(N/N=C/c1c(O)n(C2CC2)c(=S)[nH]c1=O)c1ccccc1",
    "class_name": "label 1"
  },
  {
    "compound": "COc1ccc(N2C(=O)/C(=C/c3ccco3)C(=O)NC2=S)cc1",
    "class_name": "label 1"
  },
  {
    "compound": "CN1CCC[C@@H]1CCO[C@](C)(c1ccccc1)c1ccc(Cl)cc1",
    "class_name": "label 0"
  },
  {
    "compound": "O=C1NC(=O)N(Cc2ccco2)C(=O)/C1=C\\c1ccc(-c2ccc(F)cc2)o1",
    "class_name": "label 1"
  },
  {
    "compound": "O=C(N/N=C/c1c(O)n(C2CC2)c(=S)[nH]c1=O)c1ccccc1Cl",
    "class_name": "label 0"
  }
]

These measurements were taken from PubChem BioAssay AID504454.
